test system: SK-MEL-5 melanoma; experiment: NCI tumour cell line growth inhibition, 48 h
PROPERTY_MEASURED: GI50

COMPOUND_STRING: COC(=O)c1ccc2c(c1)C(=O)c1c-2n(CCCN=[N+]=[N-])c(=O)c2cc([N+](=O)[O-])ccc12
GI50: > 100 µM

COMPOUND_STRING: CC(C)[O-].CC(C)[O-].CN(CCN(C)Cc1cc(F)cc(F)c1[O-])Cc1cc(F)cc(F)c1[O-].[Ti+4]
GI50: 0.467 µM

COMPOUND_STRING: O=[N+]([O-])c1ccc(-c2cc3c(Nc4ccc(Cl)c(C(F)(F)F)c4)ncnc3s2)cc1
GI50: 1.13 µM

COMPOUND_STRING: COc1ccc(C2=C(N3CCc4ccccc43)C(=O)NC2=O)cc1
GI50: > 21.6 µM

COMPOUND_STRING: O=C1c2ccccc2-c2c1c1c(NCCCO)nc3ccccc3c1n2Cc1ccccc1
GI50: 31 µM

COMPOUND_STRING: COc1cccc(COc2cc(-n3cnc4ccccc43)sc2C(N)=O)c1
GI50: > 19.4 µM

COMPOUND_STRING: C/C1=C\CC[C@@](C)(O)[C@@H]2C[C@H](CC/C(C)=C/CC1)C1(CC1)C(=O)O2
GI50: 17.4 µM

COMPOUND_STRING: O=C1c2ccccc2-c2c1c1ccccc1c(=O)n2CCNCCn1c2c(c3ccccc3c1=O)C(=O)c1ccccc1-2
GI50: > 25 µM

Query molecule follows.
Checklist item: GI50 tested on SK-MEL-5 melanoma, entry "COc1ccc(-c2cnoc2-c2cc(OC)c3c(c2)OCCO3)cc1" , value?
0.0222 µM

###

tested on: 786-0 renal; test: NCI tumour cell line growth inhibition, 48 h
Listed here are molecules together with their documented TGI.

For orientation, consider the following solved cases.
MOLECULE: Nc1ccc(-c2nn3c(COc4ccc(Cl)cc4)nnc3s2)cc1
TGI: > 100 µM
--
MOLECULE: c1ccc(C2CC(=NC3CCCCC3)Nc3ccccc3N2)cc1 (stereo unspecified)
TGI: > 100 µM

Query molecule follows.
Look up TGI: "CCCCCCCCCCCCCC[n+]1cccc(C(N)=O)c1"
2.82 µM

###

tested on: K-562 leukemia; assay: NCI tumour cell line growth inhibition, 48 h
Listed here are compounds together with their documented TGI.

COMPOUND: C=C1C2Oc3ccccc3C1N(c1ccccc1)O2 (stereo unspecified)
TGI: > 100 µM

COMPOUND: C=C1C(=O)C23C(O)C1CC[C@H]2C12CCCC(C)(COC(C)=O)[C@H]1[C@H](O)[C@]3(O)OC2 (stereo partly specified)
TGI: 1.07 µM

Checklist item: TGI tested on K-562 leukemia, entry CC1c2ccccc2N=C2SC(=S)N3CCN=C3N21 (stereo unspecified) , value?
> 100 µM

Checklist item: TGI tested on K-562 leukemia, entry CCOC(=O)C1CCC(=O)N1C(=O)c1ccccc1Cl (stereo unspecified) , value?
> 100 µM

Checklist item: TGI tested on K-562 leukemia, entry "O=S1CSSC1" , value?
80.7 µM

Checklist item: TGI tested on K-562 leukemia, entry "COc1nc2c(N3CCCC3)nc(N3CCNCC3)nc2nc1NCc1ccccc1" , value?
3.58 µM

Checklist item: TGI tested on K-562 leukemia, entry "O=C(NCCN1CCNCC1)c1ccc(Nc2nc3ccccc3c3occc23)cc1" , value?
40.1 µM

Checklist item: TGI tested on K-562 leukemia, entry "CCOC(=O)N1CCN(CCCCCOc2ccccc2C2CCCCC2)CC1" , value?
10.9 µM

Checklist item: TGI tested on K-562 leukemia, entry O=C(CC(C(=O)c1ccco1)c1ccco1)c1ccco1 (stereo unspecified) , value?
> 100 µM

Checklist item: TGI tested on K-562 leukemia, entry "O=S1(=O)C[C@@H](NCc2ccccc2)[C@H](NCc2ccccc2)C1" , value?
> 100 µM

Checklist item: TGI tested on K-562 leukemia, entry COc1ccc(NC(C)c2ccncc2)cc1 (stereo unspecified) , value?
> 100 µM

Checklist item: TGI tested on K-562 leukemia, entry "CC1(C)CC(C#Cc2ccccc2)CC(C)(C)N1O" , value?
> 100 µM

Source: PubChem BioAssay (NCI)
